From: ChEMBL document CHEMBL1154599

tested target: Cytochrome P450 2C9 (Homo sapiens, UniProt P11712)
Sequence (P11712 whole entry): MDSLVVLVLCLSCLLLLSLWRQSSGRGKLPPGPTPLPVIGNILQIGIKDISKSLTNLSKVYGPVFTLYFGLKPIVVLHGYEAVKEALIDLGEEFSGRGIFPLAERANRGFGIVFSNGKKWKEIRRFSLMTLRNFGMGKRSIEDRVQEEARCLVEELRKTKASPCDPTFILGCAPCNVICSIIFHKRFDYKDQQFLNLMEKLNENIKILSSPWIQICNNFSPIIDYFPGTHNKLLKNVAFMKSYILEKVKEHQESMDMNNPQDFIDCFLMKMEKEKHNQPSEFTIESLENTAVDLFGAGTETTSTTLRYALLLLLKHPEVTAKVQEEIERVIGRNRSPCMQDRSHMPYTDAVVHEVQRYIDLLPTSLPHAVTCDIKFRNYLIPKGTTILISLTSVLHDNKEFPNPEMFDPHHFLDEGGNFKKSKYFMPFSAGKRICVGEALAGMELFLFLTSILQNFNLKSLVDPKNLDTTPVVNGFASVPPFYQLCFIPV
assay summary: Inhibition of human recombinant CYP2C9
Assay type: ADME
measured endpoint: IC50

[ask] Hello, please tell me recorded IC50 for this one: CNCc1cc(=O)oc2cc(OCc3cccc(Cl)c3)ccc12.CS(=O)(=O)O
[reply] > 5 µM

====

Species on record: Rattus norvegicus
assay summary: Selectivity index, ratio of IC50 for rat MAO-A to IC50 for rat MAO-B
Threshold rule: Ratio IC50 greater than or equal to 40 is 1; below that, 0.

[ask] Does the compound CC(C(N)=O)c1cc(=O)oc2cc(OCc3cccc(F)c3)ccc12 (racemic) have recorded Ratio IC50 that is 40 or more?
[reply] 0

[ask] Is Ratio IC50 for CNC(=O)Cc1cc(=O)oc2cc(OCc3cccc(Cl)c3)ccc12 at or above 40?
[reply] 0

[ask] Is reported Ratio IC50 greater than or equal to 40 here: CN(C)Cc1cc(=O)oc2cc(OCc3cccc(Cl)c3)ccc12
[reply] 1

[ask] I'd appreciate it if you could say whether NC(=O)Cc1cc(=O)oc2cc(OCc3cccc(F)c3)ccc12 has Ratio IC50 at least equal to 40.
[reply] 1

[ask] Textbook exercise: given the entry NNC(=O)Cc1cc(=O)oc2cc(OCc3ccccc3)ccc12 , state whether its Ratio IC50 is greater than or equal to 40.
[reply] 0

[ask] Check if Ratio IC50 >= 40 (inclusive). Item: CN(C)Cc1cc(=O)oc2cc(OCc3cccc(F)c3)ccc12
[reply] 1

[ask] Determine whether measured Ratio IC50 meets or exceeds 40 for NC(=O)Cc1cc(=O)oc2cc(OCc3cccc(O)c3)ccc12
[reply] 0

[ask] Is it the case that CN(C)C(=O)Cc1cc(=O)oc2cc(OCc3cccc(Cl)c3)ccc12 has Ratio IC50 reaching or exceeding 40?
[reply] 1

[ask] Please indicate if the recorded Ratio IC50 for N#CCc1cc(=O)oc2cc(OCc3ccccc3)ccc12 meets or exceeds 40.
[reply] 0

[ask] Confirm if Ratio IC50 reported for the compound CN(C)Cc1cc(=O)oc2cc(OCc3ccccc3)ccc12 is 40 or above.
[reply] 1

[ask] Please indicate if the recorded Ratio IC50 for NC(=O)Cc1cc(=O)oc2cc(OCc3cccnc3)ccc12 meets or exceeds 40.
[reply] 0

[ask] Please tell me: is the compound CNCc1cc(=O)oc2cc(OCc3ccccc3)ccc12 at or over 40 in terms of Ratio IC50?
[reply] 1

[ask] hey, is Ratio IC50 for this one >= 40? NC(=O)[C@H](CO)Nc1cc(=O)oc2cc(OCc3cccc(Cl)c3)ccc12
[reply] 1

[ask] Does NC(=O)[C@@H]1CCCN1Cc1cc(=O)oc2cc(OCc3cccc(F)c3)ccc12 have a reported Ratio IC50 of at least 40?
[reply] 1

[ask] Check if Ratio IC50 >= 40 (inclusive). Item: C[C@H](NCc1cc(=O)oc2cc(OCc3ccccc3)ccc12)C(N)=O
[reply] 0
